Provenance of the data: the kinase profiling compilation of Christmann-Franck et al. (2016)

Assayed system: UniProt:P45983
Sequence (P45983 whole entry, looked up): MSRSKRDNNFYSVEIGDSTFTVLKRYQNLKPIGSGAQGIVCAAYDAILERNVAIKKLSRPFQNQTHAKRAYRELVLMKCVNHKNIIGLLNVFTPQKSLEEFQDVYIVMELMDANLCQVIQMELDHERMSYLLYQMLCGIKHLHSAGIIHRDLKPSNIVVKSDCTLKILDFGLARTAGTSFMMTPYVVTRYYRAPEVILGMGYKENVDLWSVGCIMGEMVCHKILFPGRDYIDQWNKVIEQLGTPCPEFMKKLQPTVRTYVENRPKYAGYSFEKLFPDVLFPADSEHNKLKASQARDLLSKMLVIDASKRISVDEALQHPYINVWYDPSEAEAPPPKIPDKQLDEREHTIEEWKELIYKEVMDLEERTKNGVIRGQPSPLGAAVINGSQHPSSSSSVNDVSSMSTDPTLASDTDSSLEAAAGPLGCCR
Protocol text: radiometric filter-binding kinase assay, Kinase HotSpot
Conditions: compound 0.5 µM; ATP 10 µM
Experimental readout: residual activity

>  <Chemical structure>
Nc1n[nH]c2nnc(-c3c(-c4ccccc4)nn4ccccc34)cc12

>  <Result>
98%

$$$$
>  <Chemical structure>
Cc1cc2ncc(-c3ccccc3)nc2cc1C

>  <Result>
101%

$$$$
>  <Chemical structure>
Nc1nc(Nc2ccc(S(N)(=O)=O)cc2)nn1C(=S)Nc1c(F)cccc1F

>  <Result>
78.8%

$$$$

----------
The following compounds are listed with their measured residual activity values.
Assayed system: MAP3K9 (human)
Protocol text: radiometric filter-binding kinase assay, Kinase HotSpot
Conditions: compound 0.5 µM; ATP 10 µM

>  <Chemical structure>
Nc1nc(Nc2ccc(S(N)(=O)=O)cc2)nn1C(=S)Nc1c(F)cccc1F

>  <residual activity, %>
-0.373

$$$$
>  <Chemical structure>
Oc1ccc(-c2nc(-c3ccc(F)cc3)c(-c3ccncc3)[nH]2)cc1

>  <residual activity, %>
53.1

$$$$
>  <Chemical structure>
C#Cc1cccc(Nc2ncnc3cc(OCCOC)c(OCCOC)cc23)c1

>  <residual activity, %>
111

$$$$
>  <Chemical structure>
NC(=O)c1ccc(N(C(N)=O)c2c(F)cccc2F)nc1-c1ccc(F)cc1F

>  <residual activity, %>
112

$$$$

----------
Assayed system: PRKCG (human)
Protocol text: radiometric filter-binding kinase assay, Kinase HotSpot
Conditions: compound 0.5 µM; ATP 10 µM

>  <Compound>
CS(=O)c1ccc(-c2nc(-c3ccc(F)cc3)c(-c3ccncc3)[nH]2)cc1 (stereo not given)

>  <Assayed system>
PRKCG (human)

>  <residual activity>
90%

$$$$
>  <Compound>
O=C(Nc1ccc(Cl)cc1)c1ccccc1NCc1ccncc1

>  <Assayed system>
PRKCG (human)

>  <residual activity>
102%

$$$$
>  <Compound>
NC(=O)c1ccc(N(C(N)=O)c2c(F)cccc2F)nc1-c1ccc(F)cc1F

>  <Assayed system>
PRKCG (human)

>  <residual activity>
91.3%

$$$$
>  <Compound>
Oc1ccc(-c2nc(-c3ccc(F)cc3)c(-c3ccncc3)[nH]2)cc1

>  <Assayed system>
PRKCG (human)

>  <residual activity>
87.9%

$$$$
>  <Compound>
CCCNC(=O)Nc1ccc(Oc2ncnc3cc(OC)c(OC)cc23)cc1Cl

>  <Assayed system>
PRKCG (human)

>  <residual activity>
120%

$$$$
>  <Compound>
O=c1cc(-c2cccc3c2Sc2ccccc2S3)oc(N2CCOCC2)c1

>  <Assayed system>
PRKCG (human)

>  <residual activity>
96.9%

$$$$
>  <Compound>
CSc1nc(-c2ccc(F)cc2)c(-c2ccnc(NC(C)c3ccccc3)c2)[nH]1 (stereo not given)

>  <Assayed system>
PRKCG (human)

>  <residual activity>
101%

$$$$
>  <Compound>
Nc1n[nH]c2nnc(-c3c(-c4ccccc4)nn4ccccc34)cc12

>  <Assayed system>
PRKCG (human)

>  <residual activity>
103%

$$$$
>  <Compound>
C#Cc1cccc(Nc2ncnc3cc(OCCOC)c(OCCOC)cc23)c1

>  <Assayed system>
PRKCG (human)

>  <residual activity>
84.1%

$$$$
>  <Compound>
O=C1Nc2cc(Br)ccc2/C1=C1/Nc2ccccc2/C1=N\O

>  <Assayed system>
PRKCG (human)

>  <residual activity>
90.9%

$$$$

----------
The entries below come with measured residual activity values attached.
Assayed system: ABL2 (human) (UniProt P42684)
Sequence (P42684 whole entry, looked up): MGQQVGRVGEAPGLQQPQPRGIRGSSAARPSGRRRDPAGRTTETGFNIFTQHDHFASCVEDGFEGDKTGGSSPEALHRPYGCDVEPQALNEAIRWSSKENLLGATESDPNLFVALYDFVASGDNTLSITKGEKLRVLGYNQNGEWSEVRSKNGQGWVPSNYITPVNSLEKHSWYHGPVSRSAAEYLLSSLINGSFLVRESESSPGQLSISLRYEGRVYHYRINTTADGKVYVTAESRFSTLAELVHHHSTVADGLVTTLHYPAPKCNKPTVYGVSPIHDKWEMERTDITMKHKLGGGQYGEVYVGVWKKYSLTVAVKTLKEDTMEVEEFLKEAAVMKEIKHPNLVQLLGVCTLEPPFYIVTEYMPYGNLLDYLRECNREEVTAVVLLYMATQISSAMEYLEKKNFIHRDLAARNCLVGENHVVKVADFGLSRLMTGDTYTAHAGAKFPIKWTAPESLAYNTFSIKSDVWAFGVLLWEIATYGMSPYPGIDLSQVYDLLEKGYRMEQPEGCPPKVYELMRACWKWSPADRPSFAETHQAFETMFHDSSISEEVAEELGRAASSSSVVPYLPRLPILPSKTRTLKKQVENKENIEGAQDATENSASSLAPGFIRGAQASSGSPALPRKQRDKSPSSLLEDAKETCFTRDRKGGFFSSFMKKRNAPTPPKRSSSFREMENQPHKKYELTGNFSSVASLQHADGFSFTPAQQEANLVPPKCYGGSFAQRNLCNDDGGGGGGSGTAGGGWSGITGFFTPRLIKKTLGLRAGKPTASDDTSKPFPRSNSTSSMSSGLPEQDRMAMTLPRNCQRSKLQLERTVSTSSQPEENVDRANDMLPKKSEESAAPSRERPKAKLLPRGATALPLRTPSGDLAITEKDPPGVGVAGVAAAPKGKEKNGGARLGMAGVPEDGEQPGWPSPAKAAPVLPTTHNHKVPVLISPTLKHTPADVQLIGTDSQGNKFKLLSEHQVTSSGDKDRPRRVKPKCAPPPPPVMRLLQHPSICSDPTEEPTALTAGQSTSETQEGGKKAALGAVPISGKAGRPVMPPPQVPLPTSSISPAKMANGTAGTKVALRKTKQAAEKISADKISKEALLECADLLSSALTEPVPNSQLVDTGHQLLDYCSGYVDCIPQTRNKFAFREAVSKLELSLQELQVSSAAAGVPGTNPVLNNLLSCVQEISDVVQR
Protocol text: radiometric filter-binding kinase assay, Kinase HotSpot
Conditions: compound 0.5 µM; ATP 10 µM
Experimental readout: residual activity (%)

>  <Compound>
COc1cc2ncnc(Nc3ccc(F)c(Cl)c3)c2cc1OCCCN1CCOCC1

>  <Experimental readout>
residual activity

>  <Numeric readout>
72

$$$$
>  <Compound>
CC(C)n1cnc2c(Nc3cccc(Cl)c3)nc(NCCO)nc21

>  <Experimental readout>
residual activity

>  <Numeric readout>
60.7

$$$$
>  <Compound>
O=C1Cc2c([nH]c3ccc([N+](=O)[O-])cc23)-c2ccccc2N1

>  <Experimental readout>
residual activity

>  <Numeric readout>
54.6

$$$$
>  <Compound>
O=c1cc(-c2cccc3c2Sc2ccccc2S3)oc(N2CCOCC2)c1

>  <Experimental readout>
residual activity

>  <Numeric readout>
92

$$$$
>  <Compound>
CC(C)(C)c1nc2c3ccc(F)cc3c3c(=O)[nH]ccc3c2[nH]1

>  <Experimental readout>
residual activity

>  <Numeric readout>
90.3

$$$$
>  <Compound>
CS(=O)c1ccc(-c2nc(-c3ccc(F)cc3)c(-c3ccncc3)[nH]2)cc1 (stereo not given)

>  <Experimental readout>
residual activity

>  <Numeric readout>
91.5

$$$$
>  <Compound>
Nc1nc(Nc2ccc(S(N)(=O)=O)cc2)nn1C(=S)Nc1c(F)cccc1F

>  <Experimental readout>
residual activity

>  <Numeric readout>
10.5

$$$$
>  <Compound>
CCCNC(=O)Nc1ccc(Oc2ncnc3cc(OC)c(OC)cc23)cc1Cl

>  <Experimental readout>
residual activity

>  <Numeric readout>
90.5

$$$$
>  <Compound>
Nc1nc(Nc2ccc(S(N)(=O)=O)cc2)nn1C(=O)c1c(F)cccc1F

>  <Experimental readout>
residual activity

>  <Numeric readout>
53.9

$$$$
>  <Compound>
Clc1ccc(Nc2nnc(Cc3ccncc3)c3ccccc23)cc1

>  <Experimental readout>
residual activity

>  <Numeric readout>
101

$$$$

----------
Assayed system: SRC (human) (UniProt P12931)
Sequence (P12931 whole entry, looked up): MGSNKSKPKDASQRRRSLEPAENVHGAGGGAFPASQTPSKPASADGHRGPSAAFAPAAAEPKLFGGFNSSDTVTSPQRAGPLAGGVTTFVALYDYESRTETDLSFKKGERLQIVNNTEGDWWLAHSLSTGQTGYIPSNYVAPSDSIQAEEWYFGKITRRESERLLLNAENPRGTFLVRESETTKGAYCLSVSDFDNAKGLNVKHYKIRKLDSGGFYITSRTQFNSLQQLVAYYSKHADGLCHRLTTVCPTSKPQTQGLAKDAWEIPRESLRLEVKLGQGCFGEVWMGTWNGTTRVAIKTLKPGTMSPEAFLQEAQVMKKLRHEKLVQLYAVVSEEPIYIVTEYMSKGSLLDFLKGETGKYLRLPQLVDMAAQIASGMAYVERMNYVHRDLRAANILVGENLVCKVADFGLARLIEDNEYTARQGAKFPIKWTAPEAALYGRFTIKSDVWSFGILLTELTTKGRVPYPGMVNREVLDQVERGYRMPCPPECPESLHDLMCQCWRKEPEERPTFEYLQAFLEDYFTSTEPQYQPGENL
Protocol text: radiometric filter-binding kinase assay, Kinase HotSpot
Conditions: compound 0.5 µM; ATP 10 µM
Some compounds, each annotated with its measured residual activity.

>  <Compound>
O=C(Nc1ccc(Cl)cc1)c1ccccc1NCc1ccncc1

>  <U>
%

>  <residual activity>
88.8

$$$$
>  <Compound>
O=c1cc(N2CCNCC2)oc2c(-c3ccccc3)cccc12

>  <U>
%

>  <residual activity>
91.2

$$$$
>  <Compound>
O=C1Nc2ccccc2/C1=C\c1c(Cl)[nH]c2ccccc12

>  <U>
%

>  <residual activity>
78.5

$$$$
>  <Compound>
CS(=O)c1ccc(-c2nc(-c3ccc(F)cc3)c(-c3ccncc3)[nH]2)cc1 (stereo unspecified)

>  <U>
%

>  <residual activity>
92.6

$$$$
>  <Compound>
Oc1ccc(-c2nc(-c3ccc(F)cc3)c(-c3ccncc3)[nH]2)cc1

>  <U>
%

>  <residual activity>
85.9

$$$$
>  <Compound>
O=C1Nc2cc(Br)ccc2/C1=C1/Nc2ccccc2/C1=N\O

>  <U>
%

>  <residual activity>
7.64

$$$$
>  <Compound>
NC(=O)c1ccc(N(C(N)=O)c2c(F)cccc2F)nc1-c1ccc(F)cc1F

>  <U>
%

>  <residual activity>
109

$$$$
>  <Compound>
CC(C)(C)c1nc2c3ccc(F)cc3c3c(=O)[nH]ccc3c2[nH]1

>  <U>
%

>  <residual activity>
93.4

$$$$
>  <Compound>
Cc1cc2ncc(-c3ccccc3)nc2cc1C

>  <U>
%

>  <residual activity>
104

$$$$
>  <Compound>
C#Cc1cccc(Nc2ncnc3cc(OCCOC)c(OCCOC)cc23)c1

>  <U>
%

>  <residual activity>
77.4

$$$$
>  <Compound>
Cc1ccc(NC(=O)c2ccc(CN3CCN(C)CC3)cc2)cc1Nc1nc(-c2cccnc2)cs1

>  <U>
%

>  <residual activity>
80

$$$$

----------
Assayed system: UniProt Q9HC98
Sequence (Q9HC98 whole entry, looked up): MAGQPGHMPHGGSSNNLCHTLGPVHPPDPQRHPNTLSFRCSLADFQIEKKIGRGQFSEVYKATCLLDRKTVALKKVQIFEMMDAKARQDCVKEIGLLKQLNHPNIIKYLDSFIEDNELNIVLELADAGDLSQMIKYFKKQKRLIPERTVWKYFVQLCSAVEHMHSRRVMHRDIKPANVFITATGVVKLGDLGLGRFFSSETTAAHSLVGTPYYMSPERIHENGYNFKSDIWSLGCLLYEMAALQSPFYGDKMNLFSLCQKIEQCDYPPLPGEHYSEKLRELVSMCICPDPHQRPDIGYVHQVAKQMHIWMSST
Protocol text: radiometric filter-binding kinase assay, Kinase HotSpot
Conditions: compound 0.5 µM; ATP 10 µM

>  <Molecule>
O=c1cc(N2CCNCC2)oc2c(-c3ccccc3)cccc12

>  <U>
%

>  <residual activity>
105

$$$$
>  <Molecule>
Oc1ccc(-c2nc(-c3ccc(F)cc3)c(-c3ccncc3)[nH]2)cc1

>  <U>
%

>  <residual activity>
99.4

$$$$
>  <Molecule>
O=c1cc(-c2cccc3c2Sc2ccccc2S3)oc(N2CCOCC2)c1

>  <U>
%

>  <residual activity>
103

$$$$
>  <Molecule>
O=C(NC(NC(=S)Nc1ccc(F)c([N+](=O)[O-])c1)C(Cl)(Cl)Cl)C(c1ccccc1)c1ccccc1 (configuration not stated)

>  <U>
%

>  <residual activity>
109

$$$$
>  <Molecule>
C#Cc1cccc(Nc2ncnc3cc(OCCOC)c(OCCOC)cc23)c1

>  <U>
%

>  <residual activity>
89.1

$$$$
>  <Molecule>
COc1cc2ncnc(Nc3ccc(F)c(Cl)c3)c2cc1OCCCN1CCOCC1

>  <U>
%

>  <residual activity>
89.9

$$$$
>  <Molecule>
CC(C)[C@H](CO)Nc1nc(Nc2cccc(Cl)c2)c2ncn(C(C)C)c2n1

>  <U>
%

>  <residual activity>
91.3

$$$$
>  <Molecule>
Cc1ccc(NC(=O)c2ccc(CN3CCN(C)CC3)cc2)cc1Nc1nc(-c2cccnc2)cs1

>  <U>
%

>  <residual activity>
91.3

$$$$
>  <Molecule>
COc1cc2nccc(Oc3ccc(NC(=S)NC(=O)c4ccccc4C)cc3)c2cc1OC

>  <U>
%

>  <residual activity>
92.4

$$$$
>  <Molecule>
O=C1Nc2ccc3ncsc3c2/C1=C/c1c[nH]cn1

>  <U>
%

>  <residual activity>
93.2

$$$$
>  <Molecule>
CSc1nc(-c2ccc(F)cc2)c(-c2ccnc(NC(C)c3ccccc3)c2)[nH]1 (configuration not stated)

>  <U>
%

>  <residual activity>
106

$$$$
>  <Molecule>
Cc1cc2ncc(-c3ccccc3)nc2cc1C

>  <U>
%

>  <residual activity>
101

$$$$
>  <Molecule>
O=C(Nc1ccc(Cl)cc1)c1ccccc1NCc1ccncc1

>  <U>
%

>  <residual activity>
97.1

$$$$
>  <Molecule>
O=C1Nc2ccccc2/C1=C\c1c(Cl)[nH]c2ccccc12

>  <U>
%

>  <residual activity>
96.5

$$$$
>  <Molecule>
CS(=O)c1ccc(-c2nc(-c3ccc(F)cc3)c(-c3ccncc3)[nH]2)cc1 (configuration not stated)

>  <U>
%

>  <residual activity>
103

$$$$
>  <Molecule>
Nc1nc(Nc2ccc(S(N)(=O)=O)cc2)nn1C(=O)c1c(F)cccc1F

>  <U>
%

>  <residual activity>
102

$$$$
>  <Molecule>
Clc1ccc(Nc2nnc(Cc3ccncc3)c3ccccc23)cc1

>  <U>
%

>  <residual activity>
93.3

$$$$
>  <Molecule>
CC(C)n1cnc2c(Nc3cccc(Cl)c3)nc(NCCO)nc21

>  <U>
%

>  <residual activity>
101

$$$$
>  <Molecule>
COc1ccc(-c2cnc3c(-c4ccsc4)cnn3c2)cc1

>  <U>
%

>  <residual activity>
99.3

$$$$
>  <Molecule>
O=C1Cc2c([nH]c3ccc([N+](=O)[O-])cc23)-c2ccccc2N1

>  <U>
%

>  <residual activity>
97.1

$$$$
>  <Molecule>
NC(=O)c1ccc(N(C(N)=O)c2c(F)cccc2F)nc1-c1ccc(F)cc1F

>  <U>
%

>  <residual activity>
90.5

$$$$
>  <Molecule>
Nc1n[nH]c2nnc(-c3c(-c4ccccc4)nn4ccccc34)cc12

>  <U>
%

>  <residual activity>
95.6

$$$$
